Test: Cytotoxicity against human Huh7.5 cells after 48 hrs by MTS assay
Format: cell-based
Condition notes: huh-7, 48 h
Reported property: CC50

> print(dat)
                                   compound  reported.property       val
1  COc1ccc(CN2CC(C)n3c(nc4cccnc43)C2=O)c(OC)c1 (racemic)               CC50  > 200 µM

Quick one: CC50 of CC1(CO)CCN2CCCCC21 (racemic) ?
> 200 µM

Another compound: CC(=O)N[C@@]12CCN(C(=O)OC(C)(C)C)C[C@@H]1CN(C(=O)OC(C)(C)C)C2 (racemic)
> 200 µM

Consider next the compound Oc1ccccc1-c1cc2c(n1Cc1ccccc1)CCCC2 in the same way.
48.9 µM

Let us now turn to O=[N+]([O-])c1ccc(-c2cc3c(n2Cc2ccccc2)CCCC3)cc1
> 200 µM

What do we get for CC1CN(C(=O)c2ccccc2)c2ccccc2NC1=O (configuration not stated) ?
> 200 µM

====

Test: Cytotoxicity against human Huh7.5 cells after 48 hrs by MTS assay
Assay type: cell-based
Condition notes: huh-7, 48 h
Reported property: CC50

Recorded CC50, per entry:
> print(dat)
                                   compound  reported.property       val
1            O=C(O)c1nn(Cc2ccccc2)c2ccccc12               CC50  > 200 µM
2  COc1ccc(NS(=O)(=O)c2ccc(CN3C(=O)c4ccccc4C3=O)cc2)cc1               CC50  > 200 µM
3              C=CCn1c(-c2ccccc2)cc2c1CCCC2               CC50    119 µM
4  CC(C)(C)OC(=O)N1CC(=O)[C@]2(C)CCN(Cc3ccccc3)[C@@H]2C1 (relative stereo)               CC50    115 µM

// returns reported CC50 for input c1ccc(Cn2c(-c3ccccc3)cc3c2CCCC3)cc1
80.8 µM

====

Test system: Hepatitis C virus
Test: Antiviral activity against HCV genotype 2a infected in HuH7.5-FGR-JC1_Rluc2A cells by […]
Type: functional, Hepacivirus hominis
List of pEC50 values.
Field pEC50 (float): negative decimal logarithm of the concentration in molar.

These recorded examples may help you get a feel for the data.
> print(dat)
                                 cpd.smiles       study.system   val
1      Fc1ccc(-n2c(-c3ccccc3)cc3c2CCCC3)cc1  Hepatitis C virus  4.91
2       c1ccc(Cn2c(-c3ccccc3)cc3c2CCCC3)cc1  Hepatitis C virus  5.59
3  Cc1ccc2[nH]c(=O)c(CN(CCc3ccccc3)C(=O)c3ccc(OCCN(C)C)cc3)cc2c1  Hepatitis C virus  4.61

Continue with the next molecule.
I have this molecule here, C=CCn1c(-c2ccccc2)cc2c1CCCC2 , and I need its recorded pEC50.
4.49

====

Test: Cytotoxicity against human Huh7.5 cells after 48 hrs by MTS assay
Type: cell-based
Condition notes: huh-7, 48 h
The entries below come with measured CC50 values attached.

Below: 3 molecules and their reported CC50.
> print(dat)
                        molecule  reported.property       val
1   CC(=O)c1cn(CC(=O)O)c2ccccc12               CC50  > 200 µM
2  CCn1cc(-c2ccccc2)c(C(=O)O)c1C               CC50  > 200 µM
3   Cc1nn(Cc2ccccc2)c(C)c1C(=O)O               CC50  > 200 µM

# query: CC50 of entry O=C(O)C1CCCN(S(=O)(=O)c2ccccc2)C1 (racemic)
> 200 µM

Then Fc1ccc(-n2c(-c3ccccc3)cc3c2CCCC3)cc1 ?
> 200 µM

Then this molecule: CCn1cc(-c2ccccc2)c(C(N)=O)c1C
> 200 µM
